The entries below come with measured viability at 24 h, 1 µM values attached.
testName: Cell viability assay in presence or absence of Dorsomorphin
Assay type: cell-based, mouse
conditions: mouse, serum-starved C2C12 cells, 1 µM, without Dorsomorphin, read-out: Cell viability, DM(−)
Respond with the bare value in %.

> print(dat)
                          smilesnotation            propertylabel  assayvalue
1  COc1ccc2[nH]c(-c3nc4ccccc4[nH]3)cc2c1  viability at 24 h, 1 µM         321

Now let's try a different one.
Look up viability at 24 h, 1 µM for this molecule: Oc1ccc2[nH]c(-c3nc4ccccc4[nH]3)cc2c1
218

* * *

testName: Cell viability assay in presence or absence of Dorsomorphin
Format: cell-based, mouse
conditions: mouse, serum-starved C2C12 cells, 10 µM, Dorsomorphin 10 µM, read-out: Cell viability, DM(+)
propertyLabel: viability at 24 h, 10 µM
Remember to quote the unit after the number.

> print(dat)
                         smilesnotation  assayvalue
1  Oc1ccc2[nH]c(-c3nc4ccccc4[nH]3)cc2c1         82%

Attention now shifts to the item below.
Look at this compound and give its reported viability at 24 h, 10 µM. COc1ccc2[nH]c(-c3nc4ccccc4[nH]3)cc2c1
111%

* * *

testName: RealTime-Glo MT cell viability assay
Format: cell-based, mouse
conditions: mouse, serum-starved C2C12 cells; 1 µM, 24 h, serum-starved C2C12; read-out: Cell viability, percent of luminescence in control untreated cells
propertyLabel: viability at 24 h, 1 µM

> print(dat)
                         smilesnotation  assayvalue
1  Oc1ccc2[nH]c(-c3nc4ccccc4[nH]3)cc2c1        218%

Next compound, viability at 24 h, 1 µM to be filled in.
Consider the compound shown here: COc1ccc2[nH]c(-c3nc4ccccc4[nH]3)cc2c1 What is its recorded viability at 24 h, 1 µM?
301%

* * *

testName: Cell viability assay in presence or absence of Dorsomorphin
Assay type: cell-based, mouse
conditions: mouse, serum-starved C2C12 cells, 100 µM, Dorsomorphin 10 µM, read-out: Cell viability, DM(+)
propertyLabel: viability at 24 h, 100 µM (%)
Write it as a number; the unit % goes unstated.

Entry Oc1ccc2[nH]c(-c3nc4ccccc4[nH]3)cc2c1 [SY-LB-35] has what viability at 24 h, 100 µM?
30

* * *

testName: Cell viability assay in presence or absence of Dorsomorphin
Assay type: cell-based, mouse
conditions: mouse, serum-starved C2C12 cells, 0.01 µM, without Dorsomorphin, read-out: Cell viability, DM(−)
propertyLabel: viability at 24 h, 0.01 µM (%)
Supply the numeric figure in %, leaving out any unit text.

Form field: reported viability at 24 h, 0.01 µM of COc1ccc2[nH]c(-c3nc4ccccc4[nH]3)cc2c1
384

Param item = Oc1ccc2[nH]c(-c3nc4ccccc4[nH]3)cc2c1 ; retrieve measured viability at 24 h, 0.01 µM.
266

* * *

testName: RealTime-Glo MT cell viability assay
Type: cell-based, mouse
conditions: mouse, serum-starved C2C12 cells; 1 mM, 24 h, serum-starved C2C12; read-out: Cell viability, percent of luminescence in control untreated cells
Protocol: To first determine how these novel compounds effect the health of C2C12 cells and to establish the range of subtoxic concentrations for future studies, cell viability assays were carried out. Serum-starved C2C12 cells were exposed to increasing concentrations (0.01–1000 µM) of SY-LB-35 and SY-LB-57 for 24 h. Exposure to Triton X-100 (125 µM) is toxic to cells and was used as a negative control for cell viability. […] Any decrease in luminescence was considered an indication of cell death or toxicity. […]
propertyLabel: viability at 24 h, 1 mM (%)
Enter your answer as a number in %; do not include the unit.

> print(dat)
                         smilesnotation  assayvalue
1  Oc1ccc2[nH]c(-c3nc4ccccc4[nH]3)cc2c1          13

Would you kindly look at the next entry?
What does the data say about its viability at 24 h, 1 mM? Entry: COc1ccc2[nH]c(-c3nc4ccccc4[nH]3)cc2c1
20

* * *

testName: RealTime-Glo MT cell viability assay
Type: cell-based, mouse
conditions: mouse, serum-starved C2C12 cells; 100 µM, 24 h, serum-starved C2C12; read-out: Cell viability, percent of luminescence in control untreated cells
Consider the following compounds and their measured viability at 24 h, 100 µM readings.
Kindly provide the numeric value in % only, without the unit symbol.

> print(dat)
                                   compound  measureunit  assayvalue
1  COc1ccc2[nH]c(-c3nc4ccccc4[nH]3)cc2c1 [SY-LB-57]            %         151

So what's the measured viability at 24 h, 100 µM for this one? Oc1ccc2[nH]c(-c3nc4ccccc4[nH]3)cc2c1 [SY-LB-35]
69

* * *

Entries annotated with measured viability at 24 h, 10 µM
testName: Cell viability assay in presence or absence of Dorsomorphin
Format: cell-based, mouse
conditions: mouse, serum-starved C2C12 cells, 10 µM, without Dorsomorphin, read-out: Cell viability, DM(−)
// return numeric value only (unit: %, not printed)

> print(dat)
                          smilesnotation  measureunit  assayvalue
1  COc1ccc2[nH]c(-c3nc4ccccc4[nH]3)cc2c1            %         289

Next molecule, please.
Entry Oc1ccc2[nH]c(-c3nc4ccccc4[nH]3)cc2c1 has what viability at 24 h, 10 µM?
147

* * *

testName: RealTime-Glo MT cell viability assay
Format: cell-based, mouse
conditions: mouse, serum-starved C2C12 cells; 10 µM, 24 h, serum-starved C2C12; read-out: Cell viability, percent of luminescence in control untreated cells
propertyLabel: viability at 24 h, 10 µM

> print(dat)
                          smilesnotation             propertylabel  assayvalue
1  COc1ccc2[nH]c(-c3nc4ccccc4[nH]3)cc2c1  viability at 24 h, 10 µM        251%

Please find the next molecule below.
What viability at 24 h, 10 µM value was documented for this molecule, Oc1ccc2[nH]c(-c3nc4ccccc4[nH]3)cc2c1 ?
137%

All values here come from paper PMC9287337.
